Test system: A549
Test: Antiproliferative activity against human A549 cells after 48 hrs by MTT assay
Format: functional, cell-based
Conditions: A549, 48 h

cpdSmiles | IC50
O=C(/C=C\Nc1ccc(O)cc1)c1cn(-c2ccccc2)nc1-c1ccccc1 | 3.21 µM
O=c1[nH]cc(F)c(=O)[nH]1 | 3.98 µM
O=C(/C=C\Nc1ccc(F)cc1)c1cn(-c2ccccc2)nc1-c1ccc(Cl)cc1 | > 50 µM
O=C(/C=C\Nc1ccc(Cl)cc1)c1cn(-c2ccccc2)nc1-c1ccc(F)cc1 | 6.7 µM
COc1ccc(N/C=C\C(=O)c2cn(-c3ccccc3)nc2-c2ccccc2)cc1 | 3.25 µM
COc1ccc(-c2nn(-c3ccccc3)cc2C(=O)/C=C\Nc2ccc(O)cc2)cc1 | 2.77 µM
O=C(/C=C\Nc1ccc(Cl)cc1)c1cn(-c2ccccc2)nc1-c1ccc(Cl)cc1 | 3.67 µM
O=C(/C=C\Nc1ccc(C(F)(F)F)cc1)c1cn(-c2ccccc2)nc1-c1ccc(Cl)cc1 | > 50 µM
O=C(/C=C\Nc1ccc(F)cc1)c1cn(-c2ccccc2)nc1-c1ccc(F)cc1 | 5.78 µM
O=C(/C=C\Nc1ccc(F)cc1)c1cn(-c2ccccc2)nc1-c1ccccc1 | 4.67 µM

---

System: A549
Assay: Antiproliferative activity against human A549 cells after 48 hrs by MTT assay
Type: functional, cell-based
Details: A549, 48 h
propertyLabel: log10 of IC50 (log10 of the value in µM)

cpdSmiles | log10 of IC50
O=C(/C=C\Nc1ccc(O)cc1)c1cn(-c2ccccc2)nc1-c1ccc(F)cc1 | 0.18
COc1cc(N/C=C\C(=O)c2cn(-c3ccccc3)nc2-c2ccccc2)cc(OC)c1OC | 0.80
COc1cc(-c2nn(-c3ccccc3)cc2C(=O)/C=C\Nc2ccc(F)cc2)cc(OC)c1OC | 1.19
COc1cc(-c2nn(-c3ccccc3)cc2C(=O)/C=C\Nc2ccc(Cl)cc2)cc(OC)c1OC | 0.94
COc1ccc(N/C=C\C(=O)c2cn(-c3ccccc3)nc2-c2ccc(F)cc2)cc1 | 0.95
COc1ccc(-c2nn(-c3ccccc3)cc2C(=O)/C=C\Nc2ccc(F)cc2)cc1 | 0.60

---

Test system: A549
Assay: Antiproliferative activity against human A549 cells after 48 hrs by MTT assay
Format: functional, cell-based
Conditions: A549, 48 h
pIC50: −log10 of the molar value.
# pIC50 annotations

cpdSmiles | system | pIC50
O=C(/C=C\Nc1ccc(C(F)(F)F)cc1)c1cn(-c2ccccc2)nc1-c1ccc(F)cc1 | A549 | < 4.30
COc1cc(-c2nn(-c3ccccc3)cc2C(=O)/C=C\Nc2ccc(C(F)(F)F)cc2)cc(OC)c1OC | A549 | < 4.30
O=C(/C=C\Nc1ccc(C(F)(F)F)cc1)c1cn(-c2ccccc2)nc1-c1ccccc1 | A549 | < 4.30
COc1ccc(-c2nn(-c3ccccc3)cc2C(=O)/C=C\Nc2ccc(C(F)(F)F)cc2)cc1 | A549 | < 4.30
